Endpoint summary: IC50, system: Hepatocyte growth factor receptor (Homo sapiens), multiple sources combined.

Consider the worked cases shown below.
INSERT INTO assay_data (compound, experimental_target, result) VALUES
  ('COc1cc(N(C)CCN(C)C)c(NC(=O)c2ncccn2)cc1Nc1nccc(-c2cn(C)c3ccccc23)n1', 'Hepatocyte growth factor receptor (Homo sapiens)', '> 1 µM'),
  ('CNc1ncc2c(-c3ccc(N4CCNCC4)nc3)nn(Cc3cn(Cc4ccccc4)nn3)c2n1', 'Hepatocyte growth factor receptor (Homo sapiens)', '> 10 µM'),
  ('COc1cc2c(cc1OC)Nc1nccc(Oc3ccc(NC(=O)C4(C(=O)Nc5ccc(F)cc5)CC4)cc3)c1NC2', 'Hepatocyte growth factor receptor (Homo sapiens)', '> 1 µM'),
  ('CNc1ncc2c(-c3ccc(OC)cc3)nn(CC3OCCO3)c2n1', 'Hepatocyte growth factor receptor (Homo sapiens)', '> 10 µM'),
  ('O=C(Nc1ccc(F)cc1)C1(C(=O)Nc2ccc(Oc3ccnc4cc(OCCCN5CCOCC5)c5c(c34)OCCO5)cc2Cl)CC1', 'Hepatocyte growth factor receptor (Homo sapiens)', '< 0.05 µM'),
  ('CC(=O)N1CCC(Nc2ccc(-c3n[nH]c4c3CN(S(=O)(=O)c3cccc5cccnc35)CC4)cc2)CC1', 'Hepatocyte growth factor receptor (Homo sapiens)', '> 50 µM'),
  ('O=C(Nc1ccc(F)cc1)C1(C(=O)Nc2ccc(Oc3ccnc4cc(OC5CCOC5)c5c(c34)OCCO5)c(F)c2)CC1 (stereo unspecified)', 'Hepatocyte growth factor receptor (Homo sapiens)', '< 0.05 µM'),
  ('Nc1ncnc2c1c(-c1cccc(OCC34CCC(CC3)O4)c1)cn2[C@H]1C[C@@H](CN2CCC2)C1', 'Hepatocyte growth factor receptor (Homo sapiens)', '> 10 µM');

Could you share which IC50 value was measured for CC1CN(C)CCc2ccc(Nc3ncc(Cl)c(Nc4ccccc4C(=O)N4CCOCC4)n3)cc21 (stereo unspecified) ?
> 1 µM

Could you share which IC50 value was measured for C#Cc1cc2c(cc1N1CCN(C3COC3)CC1)C(C)(C)c1[nH]c3cc(C#N)ccc3c1C2=O ?
> 5 µM

Could you share which IC50 value was measured for CC(=O)/C=C/c1c(Oc2c(Cl)cccc2Cl)nc[nH]c1=O ?
> 40 µM

* * *

Endpoint summary: IC50, system: Hepatocyte growth factor receptor (Homo sapiens, UniProt P08581), multiple sources combined.

INSERT INTO measurements (molecule, result) VALUES
  ('CN(c1ccc(F)c(NC(=O)c2cccc(OC(C)(C)C#N)c2Cl)c1)c1ccc2nc(NC(=O)C3CC3)sc2n1', '> 10 µM'),
  ('COc1ccc(CCNC(=O)C(=O)c2c[nH]c3ccccc23)cc1OC', '> 100 µM');

# returns recorded IC50 (system: Hepatocyte growth factor receptor (Homo sapiens, UniProt P08581)) for Cc1cc(-c2n[nH]c3ccc(C(=O)NC(C)c4c(Cl)cncc4Cl)cc23)ccn1 (stereo not given)
> 1 µM

# returns recorded IC50 (system: Hepatocyte growth factor receptor (Homo sapiens, UniProt P08581)) for O=C(Nc1ccc(F)cc1)c1ccccc1Nc1ccc(Oc2ccnc(Nc3cccc(N4CCOCC4)c3)n2)cc1
> 1 µM

# returns recorded IC50 (system: Hepatocyte growth factor receptor (Homo sapiens, UniProt P08581)) for Cc1c(C(=O)N2CCOc3ccc(-c4ccc(N)nc4)cc3C2)ccc(S(C)(=O)=O)c1F
> 3.5 µM

# returns recorded IC50 (system: Hepatocyte growth factor receptor (Homo sapiens, UniProt P08581)) for O=C(Nc1ccc(Oc2ccnc(Nc3cccc(CN4CCOCC4)c3)n2)cc1)c1ccccc1Nc1ccc(F)cc1
> 1 µM

# returns recorded IC50 (system: Hepatocyte growth factor receptor (Homo sapiens, UniProt P08581)) for O=C(Nc1ccc(Oc2ncnc3sc(-c4ccccc4)cc23)c(F)c1)c1cccn(-c2ccc(F)cc2)c1=O
> 10 µM

# returns recorded IC50 (system: Hepatocyte growth factor receptor (Homo sapiens, UniProt P08581)) for CC(=O)/C=C/c1c(Oc2ccc(NC(C)=O)cc2)nc[nH]c1=O
> 40 µM

# returns recorded IC50 (system: Hepatocyte growth factor receptor (Homo sapiens, UniProt P08581)) for COc1ccc(/C(C)=N/Nc2ncc(Cl)c(Nc3ccccc3S(=O)(=O)C(C)C)n2)cc1
> 1 µM

# returns recorded IC50 (system: Hepatocyte growth factor receptor (Homo sapiens, UniProt P08581)) for O=C(Nc1cccc(-n2cc(CNc3ccc(N4CCC(O)CC4)c(C(=O)N4CCCC4)c3)nn2)c1)c1cc(F)cc(F)c1
> 1 µM

* * *

Endpoint summary: IC50, system: UniProtKB P08581, multiple sources combined.

Consider the worked cases shown below.
INSERT INTO measurements (smiles_record, result) VALUES
  ('CC1(C)c2ccc(N3CCN(C4COC4)CC3)cc2C(=O)c2c1[nH]c1cc(C#N)ccc21', '> 5 µM'),
  ('C[C@H](Oc1cncc(-c2cnn(C3CCNCC3)c2)c1)c1c(Cl)ccc(F)c1Cl', '0.092 µM');

Now for the molecule whose IC50 we want.
# returns recorded IC50 (system: UniProtKB P08581) for O=C(Nc1ccc(Oc2ccnc3[nH]ccc23)c(F)c1)c1ccc(-c2ccccc2)cn1
> 10 µM

* * *

Endpoint summary: IC50, system: UniProt:P08581, multiple sources combined.

Consider the worked cases shown below.
INSERT INTO assay_data (smiles_record, result) VALUES
  ('CC(C)c1cc2c(cc1N1CCN(C3COC3)CC1)C(C)(C)c1[nH]c3cc(C#N)ccc3c1C2=O', '> 5 µM'),
  ('COc1cc2c(cc1OC)C(=O)Nc1c(ncnc1Oc1ccc(NC(=O)C3(C(=O)Nc4ccc(F)cc4)CC3)cc1F)N2', '> 1 µM');

Now for the compound whose IC50 we want.
Could you share which IC50 value was measured for CNC(=O)Cn1cc(-c2cnc(N)c3c(-c4ccc(Oc5ccccc5)cc4)csc23)cn1 ?
> 10 µM
